# experiment_description: Substrate activity at Helix pomatia arylsulfatase assessed as enzyme-mediated compound hydrolysis by measuring Vmax by UPLC-MS/MS analysis
# Format: ADME
A collection of molecules and their measured Vmax
Report as: number unit

Sample answers from the record:
# molecule, Vmax
data = [
    ("COc1ccc2c(c1)c(=O)oc1cc(OS(=O)(=O)O)ccc12", "8.21 µM/s"),
    ("COc1cc(/C=C/C(=O)O)ccc1OS(=O)(=O)O", "0.01 µM/s"),
    ("C[C@]12CC[C@@H]3c4ccc(OS(=O)(=O)O)cc4CC[C@H]3[C@@H]1CCC2=O", "3.8 µM/s"),
]

Kindly consider the entry below.
Exercise: Read the entry `Cc1cc(=O)oc2cc(OS(=O)(=O)O)ccc12` and write its reported Vmax.
Key: 2.66 µM/s

###

# experiment_description: Stability of the compound in pH 7 ammonium acetate buffer by UPLC-MS/MS analysis
# Type: physicochemical
Counter-ions that a name gives are not always drawn.
measurement_type: Stability

A selection of reference data follows.
# compound, Stability
records = [
    ("C[C@]12CC[C@@H]3c4ccc(OS(=O)(=O)O)cc4CC[C@H]3[C@@H]1CCC2=O", "Stable"),
    ("COc1cc(C(=O)O)ccc1OS(=O)(=O)O", "Stable"),
    ("O=[N+]([O-])c1ccc(OS(=O)(=O)O)cc1", "Stable"),
    ("O=S(=O)(O)Oc1c[nH]c2ccccc12 [INDOXYL SULFATE]", "Stable"),
    ("Cc1cc(=O)oc2cc(OS(=O)(=O)O)ccc12", "Stable"),
    ("O=S(=O)(O)Oc1cccc(O)c1", "Stable"),
    ("O=C(O)/C=C/c1ccc(OS(=O)(=O)O)cc1", "Stable"),
    ("Cc1c[nH]c2ccc(OS(=O)(=O)O)cc12", "Stable"),
    ("CCc1ccc(OS(=O)(=O)O)cc1", "Stable"),
    ("Cc1ccc(OS(=O)(=O)O)cc1", "Stable"),
]

Now take the following compound into account.
Exercise: Consider the compound `COc1cc(/C=C/C(=O)O)ccc1OS(=O)(=O)O` and give its recorded Stability.
Key: Stable

###

# experiment_description: Substrate activity at Helix pomatia arylsulfatase assessed as enzyme-mediated compound hydrolysis by measuring catalytic efficiency by UPLC-MS/MS analysis
# Assay type: ADME
Structures can show the parent of a compound that is named as a salt.
For each record, check the reported Activity: if it is below 900 s⁻¹ µM⁻¹ write met, else write not met.

# molecule, cat
data = [
    ("COc1cc(C(=O)O)ccc1OS(=O)(=O)O", "met"),
    ("O=S(=O)(O)Oc1c[nH]c2ccccc12 [INDOXYL SULFATE]", "not met"),
    ("Cc1ccc(OS(=O)(=O)O)cc1", "met"),
    ("CC(=O)NCCc1ccc(OS(=O)(=O)O)cc1", "not met"),
    ("CCc1ccc(OS(=O)(=O)O)cc1", "not met"),
    ("O=S(=O)(O)Oc1cccc(O)c1", "met"),
]

Exercise: I wonder whether `COc1cc(/C=C/C(=O)O)ccc1OS(=O)(=O)O` has Activity below 900 s⁻¹ µM⁻¹. Can you tell?
Key: met

###

# Tested on: arylsulfatase
# experiment_description: Substrate activity at Helix pomatia arylsulfatase assessed as enzyme-mediated compound hydrolysis by measuring parent compound remaining using 0.1 U of enzyme measured after 30 mins by UPLC-MS/MS analysis
# Type: ADME
# settings: Helix pomatia arylsulfatase (isolated enzyme), read-out: Stability
measurement_type: remaining at 0.5 h (%)
Dear colleague, please return just the value in %, with no unit written.

Exercise: Kindly indicate its recorded remaining at 0.5 h. Item: `Cc1cc(=O)oc2cc(OS(=O)(=O)O)ccc12`
Key: 3

Origin of values: ChEMBL document CHEMBL4422681
